Answer each item with its documented melting point.

Query :: Fill in: melting point of COc1ncccc1-c1cccc(C2(c3ccncc3)N=C(N)N(C)C2=O)c1 (centres unmarked) is ___
Result :: 243 to 245 °C

Query :: Fill in: melting point of CN1C(=O)C(c2ccncc2)(c2cccc(-c3ccc(C#N)s3)c2)N=C1N (centres unmarked) is ___
Result :: 220 to 222 °C

Query :: Fill in: melting point of CN1C(=O)C(c2ccncc2)(c2ccc(F)c(-c3cccnc3F)c2)N=C1N (centres unmarked) is ___
Result :: 218 to 220 °C

Query :: Fill in: melting point of CN1C(=O)C(c2ccncc2)(c2ccc(OC(F)F)cc2)N=C1N (centres unmarked) is ___
Result :: 193 to 195 °C

Query :: Fill in: melting point of CCc1cc(C2(c3ccc(F)c(-c4cncc(F)c4)c3)N=C(N)N(C)C2=O)cc(CC)n1 (centres unmarked) is ___
Result :: 155 to 157 °C

Query :: Fill in: melting point of Cc1cc(C2(c3cccc(-c4cc(F)ccc4F)c3)N=C(N)N(C)C2=O)cc(C)n1 (centres unmarked) is ___
Result :: 184 to 190 °C

Query :: Fill in: melting point of CN1C(=O)C(c2ccncc2)(c2cccc(-c3ccoc3)c2)N=C1N (centres unmarked) is ___
Result :: 113 to 115 °C

Query :: Fill in: melting point of CCc1cc(C2(c3cccc(OCC4CC4)c3)N=C(N)N(C)C2=O)cc(CC)n1 (centres unmarked) is ___
Result :: 68 to 70 °C
